Target or test system: human glucagon receptor (human, UniProt P47871 26-477)
Sequence (P47871 26-477): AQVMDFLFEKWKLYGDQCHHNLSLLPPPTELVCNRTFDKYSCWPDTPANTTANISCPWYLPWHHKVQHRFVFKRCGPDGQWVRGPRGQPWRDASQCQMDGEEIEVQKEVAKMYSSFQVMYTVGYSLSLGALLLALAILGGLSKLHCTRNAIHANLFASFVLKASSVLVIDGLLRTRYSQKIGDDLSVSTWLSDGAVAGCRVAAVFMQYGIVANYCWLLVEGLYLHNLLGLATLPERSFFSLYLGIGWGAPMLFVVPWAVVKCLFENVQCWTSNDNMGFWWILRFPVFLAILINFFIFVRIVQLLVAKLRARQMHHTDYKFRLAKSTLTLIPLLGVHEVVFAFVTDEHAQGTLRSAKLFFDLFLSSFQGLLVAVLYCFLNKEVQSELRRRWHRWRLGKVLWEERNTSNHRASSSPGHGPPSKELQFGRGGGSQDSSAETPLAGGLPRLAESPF
Assay notes: cell-based or functional assay
Where no end group is shown, it is not given here. [ ]: non-standard residue; d: D form. Bip(2'-Et-4'-OMe) = CCc1cc(OC)ccc1-c1ccc(C[C@H](N)C(=O)O)cc1; αMePhe(2,6-F2) = C[C@](N)(Cc1c(F)cccc1F)C(=O)O; αMeBip(OMe) = alpha-methylated Bip(OMe); hhPhe = N[C@@H](CCCc1ccccc1)C(=O)O; αMeD = C[C@](N)(CC(=O)O)C(=O)O; αMeAPPA = not defined here; αMeS = C[C@](N)(CO)C(=O)O; Aib = CC(C)(N)C(=O)O
Each entry below carries its recorded cAMP production (pmol/ml/µg prt) with saturated glucagon peptide, at 1 nM.
Endpoint name: cAMP production (pmol/ml/µg prt) with saturated glucagon peptide, at 1 nM

INSERT INTO assay_data (binder, experimental_result) VALUES
  ('VHSEGTFTSD[Bip(2''-Et-4''-OMe)][αMeAPPA] (not fully specified (C-terminus); printed as VHSEGTFTSD-Bip(OMe)-(αMe-APPA); reading uncertain) [Seq. ID. No. 87]', 5),
  ('VH[Aib]EGTFT[αMeS]D[αMeBip(OMe)][hhPhe]-NH2 [Seq. ID. No. 39]', 17),
  ('VHAEGT[αMePhe(2,6-F2)]TSD[αMeBip(OMe)][hhPhe]-NH2 [Seq. ID. No. 30]', 5),
  ('VH[Aib]EGTFT[αMeS][αMeD][Bip(2''-Et-4''-OMe)][αMeAPPA] (not fully specified (C-terminus); printed as VH-Aib-EGTFT-(αMe-Ser)-(αMe-Asp)-Bip(OMe)-(αMe-APPA); reading uncertain) [Seq. ID. No. 113]', 4);

Origin of the recorded values: patent US20120264685A1
